# Lookup of reported Reduction in Signal from Heparin at 30 sec keyed by entry
TESTED TARGET: T1, recombinant human GREM1 (hGREM1-His; C-terminal 10His tagged, R&D, #5190-GR) (human, UniProt O60565 25-184)
T1 construct: range 25-184; also called recombinant human GREM1 with a C-terminal decahistidine tag
T1 sequence: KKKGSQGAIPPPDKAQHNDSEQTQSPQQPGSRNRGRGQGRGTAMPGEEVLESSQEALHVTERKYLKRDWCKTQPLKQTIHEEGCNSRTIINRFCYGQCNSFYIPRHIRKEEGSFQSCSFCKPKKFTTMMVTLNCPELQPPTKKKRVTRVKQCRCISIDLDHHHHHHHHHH
PROTOCOL DESCRIPTION: BLI Octet, mAb captured, 100 nM GREM1 without vs with 5 uM heparin;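 also: octet Red96 biolayer interferometry at 25 °C, antibodies captured on anti-human IgG Fc biosensors, association of GREM1 measured with versus without heparin in HEPES-buffered saline, pH 7.4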
State the answer as a number, implicitly in nm.

These solved cases illustrate the format of a correct answer.
[[record]]
binder = "H4H6260P (antibody, human IgG4, V domains shown, H4H prefix = human IgG4 Fc) VH: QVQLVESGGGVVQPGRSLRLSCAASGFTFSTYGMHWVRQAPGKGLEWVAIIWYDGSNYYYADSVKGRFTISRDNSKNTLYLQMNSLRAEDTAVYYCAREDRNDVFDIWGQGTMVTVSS VL: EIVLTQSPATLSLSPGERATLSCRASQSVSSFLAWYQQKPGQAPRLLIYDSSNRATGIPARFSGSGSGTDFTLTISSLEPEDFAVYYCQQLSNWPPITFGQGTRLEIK"
unit_string = "nm"
observed_measurement = 0.17

[[record]]
binder = "H4H2889N (antibody, human IgG4, V domains shown, H4H prefix = human IgG4 Fc) VH: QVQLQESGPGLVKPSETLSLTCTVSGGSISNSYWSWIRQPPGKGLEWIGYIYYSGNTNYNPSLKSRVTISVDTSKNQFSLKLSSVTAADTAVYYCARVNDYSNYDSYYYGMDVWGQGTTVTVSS VL: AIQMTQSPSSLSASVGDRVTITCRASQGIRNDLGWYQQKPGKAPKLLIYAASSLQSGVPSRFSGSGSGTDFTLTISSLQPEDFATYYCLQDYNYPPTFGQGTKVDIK"
unit_string = "nm"
observed_measurement = 0.15

[[record]]
binder = "H4H2895N (antibody, human IgG4, V domains shown, H4H prefix = human IgG4 Fc) VH: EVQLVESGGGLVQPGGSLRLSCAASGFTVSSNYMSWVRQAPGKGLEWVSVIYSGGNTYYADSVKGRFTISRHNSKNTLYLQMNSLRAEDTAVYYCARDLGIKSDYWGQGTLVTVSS VL: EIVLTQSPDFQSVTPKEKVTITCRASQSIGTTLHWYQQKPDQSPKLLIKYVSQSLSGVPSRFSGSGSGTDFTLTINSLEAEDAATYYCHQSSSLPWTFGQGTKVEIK"
unit_string = "nm"
observed_measurement = -0.07


Consider now this further binder.
Value of measured Reduction in Signal from Heparin at 30 sec for the entry H4H6243P (antibody, human IgG4, V domains shown, H4H prefix = human IgG4 Fc) VH: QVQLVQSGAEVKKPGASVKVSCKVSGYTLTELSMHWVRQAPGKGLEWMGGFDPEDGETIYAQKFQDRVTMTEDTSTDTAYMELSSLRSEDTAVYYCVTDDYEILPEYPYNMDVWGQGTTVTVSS VL: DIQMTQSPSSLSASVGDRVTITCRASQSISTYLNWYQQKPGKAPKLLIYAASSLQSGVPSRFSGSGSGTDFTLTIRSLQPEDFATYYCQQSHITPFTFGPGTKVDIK : 0.3
